Data credit: ChEMBL document CHEMBL1133134

Ki by entry:
- Assayed system: D(1A) dopamine receptor (Rattus norvegicus)
- Sequence (P18901 whole entry): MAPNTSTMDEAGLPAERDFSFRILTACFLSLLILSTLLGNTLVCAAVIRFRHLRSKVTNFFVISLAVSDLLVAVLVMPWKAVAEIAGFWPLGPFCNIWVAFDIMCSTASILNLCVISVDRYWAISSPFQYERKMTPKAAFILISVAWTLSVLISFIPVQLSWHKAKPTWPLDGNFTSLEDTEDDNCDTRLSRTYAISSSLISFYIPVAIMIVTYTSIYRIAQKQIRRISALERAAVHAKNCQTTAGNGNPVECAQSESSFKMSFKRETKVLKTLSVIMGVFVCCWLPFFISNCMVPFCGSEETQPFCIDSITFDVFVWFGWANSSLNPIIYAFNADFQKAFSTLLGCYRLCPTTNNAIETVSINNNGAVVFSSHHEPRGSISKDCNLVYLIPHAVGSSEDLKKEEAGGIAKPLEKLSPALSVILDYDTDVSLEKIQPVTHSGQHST
- Assay comment: The compound has been evaluated for its binding affinity towards Dopamine receptor D1 by displacing the radioligand [3H]SCH-23390 (1.5 nM) in rat striatal synaptosomes.
Field: numeric (µM). Do not append units.

                                   molecule                            assayed_system  quantity  recorded_measurement
0  Oc1cc2c(cc1O)C(Cc1ccccc1)NCC2 (stereo not drawn)  D(1A) dopamine receptor (Rattus norvegicus)        Ki                  9.27

Which value of Ki has been reported for c1ccc(CC2NCCc3ccccc32)cc1 (stereo not drawn) in the records? 249

Which value of Ki has been reported for Oc1ccc(CC2NCCc3ccccc32)cc1O (stereo not drawn) in the records? 175
